Field: ELISA_avg. Provide a value for each of the binders that follow.
target-desc: T1, P26 (human, UniProt P02771 381-609, limits assumed)
T1 construct: also called AFP p26
T1 sequence: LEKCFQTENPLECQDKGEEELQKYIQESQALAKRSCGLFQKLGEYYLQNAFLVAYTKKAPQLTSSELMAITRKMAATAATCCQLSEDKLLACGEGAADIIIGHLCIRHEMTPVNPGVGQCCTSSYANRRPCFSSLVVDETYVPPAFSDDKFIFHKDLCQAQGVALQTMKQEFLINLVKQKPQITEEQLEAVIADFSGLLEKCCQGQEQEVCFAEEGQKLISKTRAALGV
protocol-notes: ELISA, format not described
Design: unit not given here
Give bare numbers.

// solved cases for ELISA_avg follow
binder	endpoint-value
D domain SEQ ID NO: 903 (designed binder) MGSWYEFYYRLEAIDNRLIALGGSEAELAAFEKEIAAFESELQAYKGKGNPEVEVLREHAAKIREWLQAYRHN	29.6
D domain SEQ ID NO: 938 (designed binder) MGSWIYFKDELAGIKKYLEALGGSEAELAMFEVAIADFEAILQKYKGKGNPEVEALRKEAAAIRDELQAYRHN	15.9
D domain SEQ ID NO: 854 (designed binder) MGSWVEFSGRLIAIDNRLWALGGSEAELAAFEKEIAAFESELQAYKGKGNPEVEYLRMWAAEIRYILQAYRHN	5.28
D domain SEQ ID NO: 885 (designed binder) MGSWYEFYLRLDAIDHRLWALGGSEAELAAFEKEIAAFESELQAYKGKGNPEVEMLREHAAHIRKWLQAYRHN	16
D domain SEQ ID NO: 909 (designed binder) MGSWVEFVTRLEAIEDRLFALGGSEAELAAFEKEIAAFESELQAYKGKGNPEVEHLRAHAAHIRHWLQAYRHN	11.7
D domain SEQ ID NO: 918 (designed binder) MGSWVEFYERLNAIEYRLEALGGSEAELAAFEKEIAAFESELQAYKGKGNPEVESLREHAAYIRQWLQAYRHN	28.7

Hi! Can you tell me ELISA_avg for each of these binders?
1. D domain SEQ ID NO: 971 (designed binder) MGSWSYFKEDLANIKSSLEALGGSEAELAWFESSIAWFEHTLQYYKGKGNPEVEALRKEAAAIRDELQAYRHN
2. D domain SEQ ID NO: 981 (designed binder) MGSWHSFKQDLAYIKYLLEALGGSEAELAQFEELIAFFEYYLQTYKGKGNPEVEALRKEAAAIRDELQAYRHN
3. D domain SEQ ID NO: 896 (designed binder) MGSWVEFVSRLYAIDFRLWALGGSEAELAAFEKEIAAFESELQAYKGKGNPEVEALREHAAQIRDWLQAYRHN

1. 11.6
2. 25.6
3. 29
